# study target: Aspartate--tRNA(Asp/Asn) ligase (Mycobacterium tuberculosis (strain ATCC 25618 / H37Rv)); further: in the data most compounds retested in dose-response had high values
# Sequence (whole entry): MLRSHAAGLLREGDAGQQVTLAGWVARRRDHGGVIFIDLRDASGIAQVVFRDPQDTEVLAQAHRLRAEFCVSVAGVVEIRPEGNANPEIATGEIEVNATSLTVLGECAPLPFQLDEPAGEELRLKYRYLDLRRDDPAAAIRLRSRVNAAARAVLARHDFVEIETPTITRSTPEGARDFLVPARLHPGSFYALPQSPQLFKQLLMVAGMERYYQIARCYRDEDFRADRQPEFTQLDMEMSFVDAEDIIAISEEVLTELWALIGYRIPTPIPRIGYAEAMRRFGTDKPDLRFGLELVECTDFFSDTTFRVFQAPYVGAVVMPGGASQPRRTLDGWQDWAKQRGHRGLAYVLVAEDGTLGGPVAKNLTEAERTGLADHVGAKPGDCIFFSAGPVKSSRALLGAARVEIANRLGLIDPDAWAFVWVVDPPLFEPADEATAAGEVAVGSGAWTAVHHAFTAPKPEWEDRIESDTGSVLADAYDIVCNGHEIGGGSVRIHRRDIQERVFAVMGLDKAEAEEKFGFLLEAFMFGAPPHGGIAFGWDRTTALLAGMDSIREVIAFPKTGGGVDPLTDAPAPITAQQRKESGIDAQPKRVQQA
# procedure text: Assay for Asp RNA synthetase-1 from Mycobacterium tuberculosis
# Assay type: functional
# Set-up: scale not given: direction of the effect not stated beside the values
# condition info: 30 µM
property: Percent Effect
Kindly write the number and append the unit.

*Q* Provide the reported Percent Effect (system: Aspartate--tRNA(Asp/Asn) ligase (Mycobacterium tuberculosis (strain ATCC 25618 / H37Rv))) for CSCCCNC(=O)Nc1cccc(-c2nccn2C)c1; further: in the data most compounds retested in dose-response had high values
*A* -3.93%

*Q* Report value: Percent Effect, system: Aspartate--tRNA(Asp/Asn) ligase (Mycobacterium tuberculosis (strain ATCC 25618 / H37Rv)), compound: Cc1cccc(-n2cc(C(=O)N3CCCC(n4ccnc4)C3)nn2)c1 (stereo unspecified); further: in the data most compounds retested in dose-response had high values
*A* 1.58%

*Q* Please look at COc1ccc(C2=C(C)C(N3CCc4ccccc4C3)=NS2(=O)=O)cc1 and tell me its recorded Percent Effect on Aspartate--tRNA(Asp/Asn) ligase (Mycobacterium tuberculosis (strain ATCC 25618 / H37Rv)).
*A* 2.67%

*Q* Retrieve Percent Effect on Aspartate--tRNA(Asp/Asn) ligase (Mycobacterium tuberculosis (strain ATCC 25618 / H37Rv)); query Cc1[nH]nc2ncc(C(=O)N3CCN(CC(C)C)CC3)cc12
*A* -2.36%

*Q* Would you please give the reported Percent Effect of NC(=O)CN1CCCN(C(=O)Cc2ccc3ccccc3c2)CC1 with Aspartate--tRNA(Asp/Asn) ligase (Mycobacterium tuberculosis (strain ATCC 25618 / H37Rv))?
*A* 2.66%

*Q* Would you please give the reported Percent Effect of CCN1CCCC1CN(CCN(C)C)S(=O)(=O)c1cccc(C#N)c1 (stereo unspecified) with Aspartate--tRNA(Asp/Asn) ligase (Mycobacterium tuberculosis (strain ATCC 25618 / H37Rv))?
*A* 5.06%

====

# study target: Shiga toxin 2 (Escherichia coli O157:H7) (UniProt P09385+P09386)
# procedure text: E. coli 0.157:H7 Shiga Toxin SOP - stx2 screening assay
# Format: functional
# Design: scale not given: direction of the effect not stated beside the values
# condition info: 30 µM
Answer each item with its documented Percent Effect.
Report the figure in % without appending any unit label.

*Q* Please indicate Percent Effect recorded for COc1c(CNCc2cnn(C)c2)c(C(C)C)nn1C
*A* 6.94

*Q* Given the compound COc1ccc(C2(NC(=O)CCn3cncn3)CCCCC2)cc1 , write its reported Percent Effect.
*A* 1.34

*Q* Note down Percent Effect recorded for O=C(Nc1nncs1)NC1CCc2ccccc21 (centres undefined)
*A* -33.6

*Q* Recall and state the measured Percent Effect for CCn1ncnc1C1CC(=O)NCc2nc3ccccn3c21 (centres undefined) .
*A* 2.83

*Q* // Input: O=C(C1CCOCC1)N1CCc2ncnc(-c3ccc(F)cc3)c2CC1 . Output its Percent Effect only.
*A* -14

*Q* Recall and state the measured Percent Effect for CCNC(=O)c1ccc(CNCc2c(C)nn(C)c2N(C)C)cc1 .
*A* -25.7

*Q* Look up and report measured Percent Effect for this entry: COc1ccc(NC(=O)Cn2nc(C)ccc2=O)cc1OC
*A* -5.66

*Q* Specify reported Percent Effect for the compound shown: Cc1n[nH]cc1CNc1ccc2c(c1)N(C(=O)OC(C)(C)C)CCC2
*A* -17.7

*Q* Supply reported Percent Effect belonging to this compound: COc1c(CNC2CCSc3ccc(F)cc32)c(C)nn1C (centres undefined)
*A* -10.4

*Q* Give Percent Effect for the following compound: N#Cc1ccc(CNC(=O)NC2CCN(CC(F)F)CC2)cc1
*A* -8.96

*Q* Look up Percent Effect of CCOCC(=O)N1C[C@@H](O)[C@H](N(C)Cc2ccc(OC)cc2)C1 and report it.
*A* 14.7

*Q* Supply reported Percent Effect belonging to this compound: CC(=O)N1CCN(C(=O)c2cc(-n3cnnn3)ccc2Cl)CC1
*A* -21.8

*Q* Determine from records and report Percent Effect for CC(c1ccco1)N(C)Cc1nc2c(cnn2C)c(=O)[nH]1 (centres undefined)
*A* -9.3

*Q* Give recorded Percent Effect. N#Cc1ccccc1OCCN1CCC(N2CCNC2=O)CC1
*A* -50.9

*Q* Please supply the value of reported Percent Effect for the item CCOC(=O)N1CCN(C(=O)CCn2ccc3c(OC)cccc32)CC1
*A* -14.3

*Q* Quote Percent Effect reported for COc1cccc(CN2CCC(c3cc(O)nc(C)n3)C2)c1 (centres undefined) please.
*A* -14.1

*Q* For the compound CC(C)OCCC(=O)N(C)CCCc1cc(-c2ccccc2)no1 , give its reported Percent Effect.
*A* 38.9

*Q* Tell us which Percent Effect value is on record for Cc1cnn(C2CCCN(C(=O)CCCNc3ncccn3)C2)c1 (centres undefined)
*A* 20.6

*Q* Answer with reported Percent Effect of Cc1ccccc1CN1CCN(Cc2nccn2C)CC1
*A* 13.3

*Q* // fetch Percent Effect given entry Cc1cnn(CC2CCCCN2C(=O)CN(C)C2CC2)c1 (centres undefined)
*A* -50.8

*Q* Identify measured Percent Effect corresponding to COc1ccnc(N2CCN(C(=O)c3cnn(C)c3C3CC3)CC2)n1
*A* 11.7

*Q* Could you please provide reported Percent Effect for CC(C)c1nnc2n1CCN(C(=O)c1ccc3cc[nH]c3c1)C2 ? Thanks!
*A* 3.97

*Q* Identify measured Percent Effect associated with COCCCNC(=O)NCc1ccc(C)cc1
*A* -59.7

*Q* # return recorded Percent Effect for input O=C(NCC1CCOC1)c1ccc(OCC(F)(F)F)nc1 (centres undefined)
*A* -17.6

====

# study target: Shiga toxin 2 (Escherichia coli O157:H7) (UniProt P09385+P09386)
# procedure text: E. coli 0.157:H7 Shiga Toxin SOP - stx2 screening assay
# Type: functional
# Parameters: scale not given: direction of the effect not stated beside the values
# condition info: 30 µM
Exercise: for every item that follows, state its recorded Percent Effect.
Entry rule: numbers only, all in %.

*Q* Name the recorded Percent Effect of the item CCC1=N[C@@]2(CC[C@@H]3CN(C(=O)NCc4ccccc4)C[C@@H]32)C(=O)N1C in your answer.
*A* 3.06

*Q* // fetch Percent Effect given entry CCC1(CC)Cc2ccccc2-c2nc(NCCO)[nH]c(=O)c21
*A* 17.7

*Q* Quick one: give measured Percent Effect for O=C(CCCc1ccc(F)cc1)N1C[C@@H](CN2CCOCC2)[C@@H](CO)C1
*A* -6.96

*Q* Determine from records and report Percent Effect for COc1ccc(CNC(=O)NCC2CCOC2)c(C(F)(F)F)c1 (centres undefined)
*A* -3.72

*Q* # return recorded Percent Effect for entry O=C(CN1CCN(C(=O)Cc2ccc3c(c2)OCCO3)CC1)NC1CC1
*A* -19.4

*Q* Determine from records and report Percent Effect for O=C(NCCc1ccc(Cl)s1)NCc1nnc2n1CCC2
*A* 22.9

*Q* Give recorded Percent Effect. CC(NC(=O)CCc1cccs1)c1nnc2n1CCC2 (centres undefined)
*A* 3.4

*Q* Assign Percent Effect to the following record: Cc1ccc(NC2CCN(C(=O)c3n[nH]c4ccccc34)CC2)nn1
*A* -18.6

*Q* Please report Percent Effect for the following compound: Cc1nc(C)n(C2CCCN(C(=O)COCc3ccccc3)C2)n1 (centres undefined)
*A* -2.76

*Q* Please list Percent Effect recorded for the compound COCCC(=O)N1CCCC2(CCC(=O)N2CCOC)CC1 (centres undefined)
*A* -11.1

*Q* Answer with reported Percent Effect of CCn1nccc1CNC(=O)C(C)n1cc2c(n1)c(C)nn2C (centres undefined)
*A* -29.4

*Q* Indicate the recorded Percent Effect value for this compound: O=C1NC2(CCNCC2)CC1c1cccnc1 (centres undefined)
*A* -1.63

*Q* Quickly give me recorded Percent Effect for Cc1ccc(C(=O)N2CCC3(CC2)CC(N2CCOCC2)C3)cc1
*A* 3.95

*Q* Report Percent Effect for CC(=O)c1ccc(OCC(=O)NC(C)CCc2ccco2)cc1 (centres undefined)
*A* -18.5

*Q* Identify Percent Effect associated with the compound Cn1ccnc1-c1cccc(NC(=O)NCCCO)c1
*A* -54.8

*Q* Write down Percent Effect measured for item c1ccc(OC[C@]23COC[C@H]2CN(Cc2ccoc2)C3)nc1
*A* -23.7

*Q* Recall and state the measured Percent Effect for Cc1cnc(CN(C)C2CCN(CC(=O)N(C)c3nccs3)C2)o1 (centres undefined) .
*A* -15.8

*Q* Give the measured Percent Effect for COCCN1CCC(CN(CC2CCCO2)C(=O)COC)CC1 (centres undefined)
*A* -0.207

*Q* For the compound CCOCCNc1nc(C2CCCC2)nc2c1cnn2C , report Percent Effect.
*A* 1.57
